Counter-ions that a name gives are not always drawn.
In this section we review reported melting point values for a set of molecules.

Examples from the recorded data:
{"molecule": "CN1C(=O)[C@@H](CN2CCCCC2)C[C@H]1C#Cc1ccccc1Cl.Cl [Example D6]", "melting point": "160 to 165 °C"}
{"molecule": "CN1C(=O)[C@@H](CN2CCCCC2)C[C@H]1c1ccc(-c2ccc3c(c2)OCO3)cc1 (relative stereo)", "melting point": "110 to 112 °C"}
{"molecule": "CN1C(=O)[C@@H](CN2CCCCC2)C[C@H]1c1cnc(-c2sccc2Cl)s1.Cl [Example F3]", "melting point": "215 to 220 °C"}
{"molecule": "Cc1cc(C)cc([C@@H]2C[C@H](CN3CCCCC3)C(=O)N2C)c1.Cl [Example A3]", "melting point": "184 to 190 °C"}
{"molecule": "CN1C(=O)[C@@H](CN2CCCCC2)C[C@H]1c1ccc2c(c1)CCCC2.Cl [Example A6]", "melting point": "234 to 238 °C"}

Notebook: CN1C(=O)[C@@H](CN2CCCCC2)C[C@H]1c1ccc(Br)cc1 (as salt: HCl) , melting point read as 55 to 58 °C

Notebook: CN1C(=O)[C@@H](CN2CCCCC2)C[C@H]1C#Cc1ccccc1Cl.Cl [Example D5] , melting point read as 166 to 169 °C

Notebook: Cc1cccc(C#C[C@@H]2C[C@H](CN3CCCCC3)C(=O)N2C)c1.Cl [Example D1] , melting point read as 163 to 167 °C
